Target Under Test: T1, human CD3 expressed on cells (Jurkat cells; human CD4 T cells) (human, UniProt P07766 23-207)
T1 construct: whole, on cells; also called human CD3 receptor on T cell surface; human CD3 expressing cells (Jurkat cells)
T1 sequence (P07766 23-207): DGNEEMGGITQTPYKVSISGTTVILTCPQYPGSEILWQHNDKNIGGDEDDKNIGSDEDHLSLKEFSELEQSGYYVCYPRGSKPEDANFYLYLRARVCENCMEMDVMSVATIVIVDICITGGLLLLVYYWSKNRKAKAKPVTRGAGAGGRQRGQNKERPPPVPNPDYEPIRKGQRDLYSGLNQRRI
Assay Notes: flow cytometry on Jurkat cells, one site saturation fit
Readout Type: Kd (nM)
Numbers only, in nM.

Below, each entry is followed by its recorded Kd result.
• WBP3311_2.400.5 (antibody, V domains shown, Mouse monoclonal antibody from hybridoma; also called W3311-2.400.5) VH: QVQLQQSGPELVNPGASVKISCKASGYSFTNYYLHWVKQRPGQGLEWIGWIFPESDNTKYNEKLKGKATLTADTSSDTAYMHLSSLTFEDSAVYFCARDSVGNYFFDFWGQGTTLTVSS VL: DIVMSQSPSSLAVSAGEKVTMRCKSSQSLVNNRTRKNYLAWYQQKPGQPPKLLIYWASTRESGVPDRFTGSGSGTDFTLTISSVQAEDLAVYYCAQSFILRTFGGGTKLEIK = 0.934
• WBP3311_2.166.48 (antibody, IgG2a, V domains shown, Mouse monoclonal antibody from hybridoma; also called W3311-2.166.48; W3311_2.166.48) VH: QVQLQQSGPELVKPGASVKIACKASGYSFTTYYIHWVKQRPGQGLEWIGWIFPGNDNIKYSEKFKGKATLTADTSSSTAYMQLSSLTSEDSAVYFCAIDSVSIYYFDYWGQGTTLTVSS VL: DIVMSQSPSSLAVSAGEKVTMSCKSSQSLLNSRTRKNYLAWYQQKPGQSPKLLIYWASTRKSGVPDRFTGSGSGTDFTLTINSVQAEDLAVYYCTQSFILRTFGGGTKLEIK = 1.67
• WBP3311_2.615.8 (antibody, V domains shown, Mouse monoclonal antibody from hybridoma; also called W3311-2.615.8) VH: QVQLQQSGPELVKPGTSMKISCKASGYSFTDFYTHWVRQRPGQGLEWIGWIFPGSDNIKYNEKFKGKATLTADTSSSTAYMQLSSLTSEDSAVYFCARDSVSVYYFDYWGQGTTLTVSS VL: DIVMSQSPSSLAVTAGEKVTMSCKSSQSLLNIRTRKNYLAWYQQKPGQSPKLLIYWASTRDSGVPDRFTGSGSGTDFTLTISSVQAEDLAVYYCTQSFILRTFGGGTKLEIK = 2.23
• WBP3311_2.844.8 (antibody, V domains shown, Mouse monoclonal antibody from hybridoma; also called W3311-2.844.8; clone 2.844.8) VH: QVQLQQSGPELVKPGASVRISCKASGFAFTDYYIHWVKQRPGQGLEWIGWISPGNVNTKYNENFKGRATLTADLSSSTAYMQLSSLTSEDSAVYFCARDGYSLYYFDYWGQGTTLTVSS VL: DIVMSQSPSSLTVSAGEKVTMSCKSSQSLLNSRTRKNYLAWYQQKPGQSPKLLIYWASTRESGVPDRFTGSGSGTAFTLTISGVQAEDLAVYFCTQSHTLRTFGGGTKLEIK = 0.252

Alright, here's another binder for you.
Problem: Reported Kd for WBP331_2.488.33 (antibody, V domains shown, Mouse monoclonal antibody from hybridoma; also called WBP3311_2.488.33; W3311-2.488.33) VH: QVQLQQSGPELVKPGTSVKISCKASGFSFTNYYIHWVKQRPGQGPEWIGWIFPGTVNTKYNEKFKGKATLTADTSSNTAFMQLSSLTSADSAVYFCARDSVGIYYFDFWGLGTTLTVSS VL: DIVMSQSPSSLAVSAGEKVTVSCKSSQSLLNNRTRKNYLAWYQQKPGQSPKLLIYWASTRESGVPDRFTGSGSGTDFTLTISSVQAEDLAVYYCTQSFILRTFGGGTKLEIK : what is it?
Result: 1.32
